These entries and their values trace back to PubChem BioAssay AID2732.

assay: blockers of ER-stress CHOP reporter expression – cell-based, unfolded protein response, luciferase reporter, primary screen (AID 2732); conditions: CHO-K1 CHOP-promoter luciferase, tunicamycin-induced, 15-18 h; at 10 µM; stronger effect = higher value;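 further: 0% = tunicamycin plus vehicle and 100% = wells without tunicamycin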
Out of some 220,000 compounds screened, about 8,200 (3.7%) were called active. Shown is part of a subset that was picked to be rich in actives.
The threshold is inclusive: inhibition of exactly 20% counts as Yes; values below receive No.

1. CC1Cc2ccccc2N1CC(=O)Nc1ccc(S(N)(=O)=O)cc1 (configuration not stated); No

Say whether O=C(Nc1ccccc1C(F)(F)F)N1CCCC1c1cccnc1 (configuration not stated) shows inhibition of 20% or more.
No

Determine whether measured inhibition meets or exceeds 20% for O=C(Nc1ccnc(-c2ccncc2)n1)c1cccs1
No

# check: inhibition of C/C(CC(C)C)=N\Oc1nc(C)cc(C)n1 is greater than or equal to 20%
No

Reported inhibition reaches at least 20% for CNc1ncnc2c1ncn2[C@@H]1O[C@H](CO)[C@H](O)C1O (some centres not stated) ?
No

====

assay: blockers of ER-stress CHOP reporter expression – cell-based, unfolded protein response, luciferase reporter, primary screen (AID 2732); details: CHO-K1 CHOP-promoter luciferase, tunicamycin-induced, 15-18 h; at 10 µM;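 further: 0% = tunicamycin plus vehicle and 100% = wells without tunicamycin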
The campaign covered roughly 220,000 compounds. About 8,200 (3.7%) were called active.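 Rule for the calls: active = compounds that reduced the stress-induced luciferase reporter signal by more than about 70% of percent inhibition (limit read from the data); inactive = the rest.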 The sample holds actives, similar compounds and a random draw of the others, so the mix is not that of the screen.
Your answer must be one of the following: active, inactive

1. CCC(C)c1ccc(O)c(/C=N/O)c1 (stereo unspecified); active
2. c1ccc(-n2cccc2)c(N2CCCCC2)c1; inactive
3. O=C(O)CCC(=O)Nc1nc2ccc([N+](=O)[O-])cc2s1; inactive
4. CC(=O)Nc1cccc(-c2cnc3ccccc3n2)c1; inactive

# outcome recorded in this test, key = O=C(Nc1nnc(Cc2ccc(Cl)cc2)s1)c1ccncc1
inactive

Call for entry C=CCN1CC(C)/C(=N\O)CC1C (stereo unspecified) :
inactive

Hi, sorry to bother you, what did the test record for O=C(/C=C/Sc1ncn[nH]1)c1ccc(Cl)cc1 ?
active

Would you mind telling me which call this test gave COc1ccc(Cl)cc1CSc1ncn[nH]1 ?
inactive

Could you kindly confirm the outcome this assay logged for CSc1nc(C)cc(SC(C(C)=O)C(=O)Nc2ccccc2)n1 (stereo unspecified) ?
inactive

Assay result, entry O=S(=O)(c1ccc(NC(=S)NN=C(C2CC2)C2CC2)cc1)N1CCOCC1 — outcome?
inactive

====

assay: blockers of ER-stress CHOP reporter expression – cell-based, unfolded protein response, luciferase reporter, primary screen (AID 2732); conditions: CHO-K1 CHOP-promoter luciferase, tunicamycin-induced, 15-18 h; at 10 µM; stronger effect = higher value;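 further: 0% = tunicamycin plus vehicle and 100% = wells without tunicamycin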
Hit rate of the full screen: of about 220,000 compounds, about 8,200 (3.7%) were called active. This is one part of a sample in which actives are shown more often than they occur.
Each entry gets 0 if its inhibition stays under 20%, and 1 if its inhibition is 20% or above.

Example entries begin here.
1. Cc1ccc(-c2noc(CN3CCN(Cc4ccccc4)CC3)n2)cc1; 1
2. O=C1CCCCC1C(=O)c1ccccc1 (stereo not drawn); 0
3. O=C(NNS(=O)(=O)c1ccccc1)c1cnn(-c2ccc(Cl)cc2)c1C(F)(F)F; 0
4. COc1cccc(/C=N/NC(=O)c2cccc([N+](=O)[O-])c2)c1OS(=O)(=O)c1ccc(C)cc1; 0
5. O=C(NC(=O)c1ccccc1N1CCCCC1)Nc1ccc(Br)cc1; 0

hey, is inhibition for this one >= 20%? O=C(Cc1ccccc1)NNC1CC(=O)N(c2ccc(Br)cc2)C1=O (stereo not drawn)
0
